- Test Details: GLP1 release stimulators, primary, NCI-H716, NPC library (AID 1117341)
- Assay Conditions: NCI-H716 cells, at 10 µM, hits give high values
Listing: GLP1 secretion stimulation of selected molecules
Note: unit % is implicit; provide only the numeric part.

Give its GLP1 secretion stimulation value. Item: S=P(N1CC1)(N1CC1)N1CC1
-2.2

Request: CN(C)CC/C=C1/c2ccccc2COc2ccc(CC(=O)O)cc21
-0.7

Request: C=CCc1ccc(O)c(OC)c1
2.4

Request: O=C(O)CSCC(=O)NC1CCSC1=O (stereo unspecified)
-0.3

Request: CNCC(O)c1ccc(O)c(O)c1 (stereo unspecified)
2.7

---
Give its GLP1 secretion stimulation value. Item: CN(CCOc1ccc(NS(C)(=O)=O)cc1)CCc1ccc(NS(C)(=O)=O)cc1
0.3

---

Listing: inhibition of selected molecules
- Test Details: growth inhibition, single agents and combos, CRL2098, cell-based, BGB or cisplatin IC20 combos, synergistic combos for chromothripsis tumors (AID 1671454);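 note: cells exposed for 96 h before readout; 0% = vehicle DMSO and 100% = killing by high DMSO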
- Assay Conditions: CRL2098 osteosarcoma cells, drug combinations, at 0.5 µM, hits give high values
Note: unit % is implicit; provide only the numeric part.

Give its inhibition value. Item: O=c1oc2c(O)c(O)cc3c(=O)oc4c(O)c(O)cc1c4c23
-20.7

Request: Nc1nc(=S)c2[nH]cnc2[nH]1
-31.6

Request: O=NN(CCCl)C(=O)NCCCl
-22.8

Request: Nc1nc2c(ncn2COC(CO)CO)c(=O)[nH]1
2.15

Okay, now this molecule:
Give its inhibition value. Item: Cc1oncc1C(=O)Nc1ccc(C(F)(F)F)cc1
-47.6

---

- Target Desc: Calcium-activated potassium channel subunit alpha-1 (Homo sapiens) + Leucine-rich repeat-containing protein 26 (Homo sapiens) (UniProt Q12791+Q2I0M4)
- Sequence (Q2I0M4 whole entry, looked up, one chain of several): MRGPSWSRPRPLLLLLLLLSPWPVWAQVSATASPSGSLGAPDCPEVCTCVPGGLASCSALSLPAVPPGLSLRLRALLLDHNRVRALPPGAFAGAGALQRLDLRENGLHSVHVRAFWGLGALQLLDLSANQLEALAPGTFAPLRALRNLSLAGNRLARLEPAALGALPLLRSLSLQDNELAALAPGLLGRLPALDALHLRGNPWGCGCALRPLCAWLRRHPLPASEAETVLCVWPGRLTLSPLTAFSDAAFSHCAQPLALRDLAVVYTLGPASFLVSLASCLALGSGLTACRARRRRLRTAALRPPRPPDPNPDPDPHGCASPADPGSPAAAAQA
- Test Details: BK channel mutant inhibitors and activators – cell-based, U2OS BacMam, thallium flux, beta subunits, selectivity assay, profiling panel (AID 1259406);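 note: initial slope of Thallos dye fluorescence rise after thallium is added; log ratio against the mean of 0.3% DMSO vehicle wells on the same plate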
- Assay Conditions: U2OS BacMam BK variants, F380Y/Slo1WT/gamma1, at 30 µM
Active and inactive are the calls of the source.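 The calls were made as follows: active = thallium flux through the channel raised or lowered by more than 3 SD from vehicle-only wells, actives on both sides; inactive = the rest.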
Assign a class; possible classes are 1 = active, -1 = inactive

Kindly provide the recorded test outcome for the following molecule: C[C@H]1COc2c(C3(N)CC3)c(F)cc3c(=O)c(C(=O)O)cn1c23
-1

Request: C[C@]12C[C@H](O)[C@H]3[C@@H](CCC4=CC(=O)CC[C@@]43C)[C@@H]1CC[C@@H]2C(=O)CO
-1

Request: C[C@H](NC(CCc1ccccc1)C(=O)O)C(=O)N1CCC[C@H]1C(=O)O (some centres undefined)
-1

Request: CNCC(O)c1ccc(O)c(O)c1 (centres undefined)
-1

Request: CC(=O)Nc1ccc(CC(=O)O)cc1
-1

Request: COc1ccc(C(=O)NCc2ccc(OCCN(C)C)cc2)cc1OC
1

Request: CC(C)(C)NC(=O)[C@@H]1CN(Cc2cccnc2)CCN1C[C@@H](O)C[C@@H](Cc1ccccc1)C(=O)N[C@H]1c2ccccc2C[C@H]1O
-1

Request: c1cnc(N2CCN(Cc3ccc4c(c3)OCO4)CC2)nc1
-1

Request: CN(C)CCCSc1ccccc1NC(=O)/C=C/c1ccccc1
-1

Request: COC(=O)C1=C(C)NC(C)=C(C(=O)OC(C)C)C1c1cccc2nonc12 (centres undefined)
-1

---
Kindly provide the recorded test outcome for the following molecule: C#C[C@]1(O)CC[C@H]2[C@@H]3CCc4cc(OC)ccc4[C@H]3CC[C@@]21C
-1

Request: Cc1cnc(NC(=O)C2=C(O)c3ccccc3S(=O)(=O)N2C)s1
-1

Request: O=C(CCNNC(=O)c1ccncc1)NCc1ccccc1
-1

Request: CCN1CCN(c2cc3c(cc2F)c(=O)c(C(=O)O)cn3C2CC2)CC1
-1

Request: OCCOCCN1CCN(C2=Nc3ccccc3Sc3ccccc32)CC1
-1

Request: CN(C/C=C/C#CC(C)(C)C)Cc1cccc2ccccc12
-1

Request: CC(N)C12CC3CC(CC(C3)C1)C2 (centres undefined)
-1

Request: Nc1ccn([C@H]2CC[C@@H](CO)O2)c(=O)n1
-1

Request: COC(=O)C1=C(C)NC(C)=C(C(=O)OCC(C)C)C1c1ccccc1[N+](=O)[O-] (centres undefined)
1

Request: CC(C)NCC(O)COc1ccc(COCCOC(C)C)cc1 (centres undefined)
-1

Request: O=C1Nc2ccc(Cl)cc2[C@@](C#CC2CC2)(C(F)(F)F)O1
-1

---

- Test Details: Wnt pathway potentiators raising nuclear beta-catenin – imaging, WNT3A-conditioned medium, mouse C2C12, NPC library, primary screen (AID 1117326)
- Assay Conditions: at 10 µM, hits give high values
Listing: nuclear beta-catenin stimulation of selected compounds
Note: unit % is implicit; provide only the numeric part.

Here's what some known entries look like.
Give its nuclear beta-catenin stimulation value. Item: Clc1ccc(C(c2ccccc2Cl)C(Cl)Cl)cc1 (centres undefined)
4.5

Request: CC1=CC(=O)c2ccccc2C1=O
25

Request: COc1ccc2cc1Oc1ccc(cc1)C[C@H]1c3c(cc4c(c3Oc3cc5c(cc3OC)CCN(C)[C@@H]5C2)OCO4)CCN1C
64.7

Okay, now this compound:
Give its nuclear beta-catenin stimulation value. Item: COc1ccc(C2CNC(=O)C2)cc1OC1CCCC1 (centres undefined)
-0.2

---

- Test system: R275C/beta1
- Test Details: BK channel mutant inhibitors and activators – cell-based, U2OS BacMam, thallium flux, beta subunits, selectivity assay, profiling panel (AID 1259406);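 note: initial slope of Thallos dye fluorescence rise after thallium is added; log ratio against the mean of 0.3% DMSO vehicle wells on the same plate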
- Assay Conditions: U2OS BacMam BK variants, at 30 µM
Calls of active or inactive are those of the source.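 Rule for the calls: active = thallium flux through the channel raised or lowered by more than 3 SD from vehicle-only wells, actives on both sides; inactive = the rest.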
Assign a class; possible classes are active, inactive

# example entries with known answers
Kindly provide the recorded test outcome for the following molecule: CC(C)(C#N)c1cc(Cn2cncn2)cc(C(C)(C)C#N)c1
inactive

Request: COc1ccc(C2CNC(=O)C2)cc1OC1CCCC1 (stereo not drawn)
inactive

Request: CC(Cc1ccccc1)(NC(=O)CN)c1ccccc1 (stereo not drawn)
inactive

Request: CCOC(=O)O[C@]1(C(=O)OCCl)CC[C@H]2[C@@H]3CCC4=CC(=O)C=C[C@]4(C)[C@H]3[C@@H](O)C[C@@]21C
inactive

Request: CC1(C)S[C@@H]2[C@H](N=CN3CCCCCC3)C(=O)N2[C@H]1C(=O)O
inactive

Request: CC1(C)O[C@@H]2C[C@H]3[C@@H]4C[C@H](F)C5=CC(=O)C=C[C@]5(C)[C@@]4(F)[C@@H](O)C[C@]3(C)[C@]2(C(=O)CO)O1
active

Request: CN1CCN(c2c(F)cc3c(=O)c(C(=O)O)cn4c3c2SCC4)CC1
inactive

Request: O=C(O)/C=C/c1ccc(Cn2ccnc2)cc1
inactive

Read the next record carefully.
Kindly provide the recorded test outcome for the following molecule: CC(=O)Nc1ccc(CC(=O)O)cc1
inactive

---

- Test Details: Wnt pathway potentiators raising nuclear beta-catenin – imaging, WNT3A-conditioned medium, mouse C2C12, NPC library, primary screen (AID 1117326)
- Assay Conditions: at 10 µM, hits give high values
Readout Type: nuclear beta-catenin stimulation (%)
Note: unit % is implicit; provide only the numeric part.

Here's what some known entries look like.
Give its nuclear beta-catenin stimulation value. Item: NS(=O)(=O)c1cc2c(cc1Cl)NC(CSCc1ccccc1)=NS2(=O)=O
-0.6

Request: CN(C)CCOC(=O)COc1ccc(Cl)cc1
-0.6

Request: CC(C)COCC(CN(Cc1ccccc1)c1ccccc1)N1CCCC1 (configuration not stated)
0.1

Request: N[C@@H](CCC(=O)N[C@@H](CS)C(=O)NCC(=O)O)C(=O)O
-1

Request: CN(C)C(=O)Nc1ccc(Cl)c(Cl)c1
3.6

Request: NC(=O)OCC(COC(N)=O)c1ccccc1
-1.9

---
Give its nuclear beta-catenin stimulation value. Item: CN1CCC[C@@H]1CCO[C@](C)(c1ccccc1)c1ccc(Cl)cc1
7.8

Request: COCCc1ccc(OCC(O)CNC(C)C)cc1 (configuration not stated)
0.8

Request: Cc1cc(C)cc(OCC2CNC(=O)O2)c1 (configuration not stated)
-0.1

Request: Nc1ccc(S(=O)(=O)NC(=O)c2ccccc2)cc1
1.5

Request: CCN1CCN(c2cc3c(cc2F)c(=O)c(C(=O)O)cn3C2CC2)CC1
0.9

Request: Cc1cc2c(C(C)C)c(O)c(O)c(C=O)c2c(O)c1-c1c(C)cc2c(C(C)C)c(O)c(O)c(C=O)c2c1O
64.5

Request: CCOC(=O)C1=C(C)NC(C)=C(C(=O)OC)C1c1cccc(Cl)c1Cl (configuration not stated)
35.8

Request: Nc1ccc(S(=O)(=O)Nc2cnc3ccccc3n2)cc1
-0.3

Request: CCCc1ncc(C[n+]2ccccc2C)c(N)n1
-1.3

Request: CCN(CC)C(=O)c1cccc(C)c1
6.1

Request: C[N+](C)(C)CCCCCC[N+](C)(C)C
-0.3

Request: NC(CS)C(=O)O (configuration not stated)
-0.1

Request: O=c1c(-c2ccc(O)cc2)coc2cc(O)cc(O)c12
8.6

Request: COc1ccc2nc(S(=O)Cc3ncc(C)c(OC)c3C)[nH]c2c1 (configuration not stated)
8.5

Request: CCN(CCCCOC(=O)c1ccc(OC)c(OC)c1)C(C)Cc1ccc(OC)cc1 (configuration not stated)
0.6

Request: Nc1nccs1
-1.6

Request: CCCc1nc(C)c2c(=O)[nH]c(-c3cc(S(=O)(=O)N4CCN(CC)CC4)ccc3OCC)nn12
0.1

Request: CN(C)/N=N/c1nc[nH]c1C(N)=O
1.8

Request: Cc1scc2c1N(C(=O)CN1CCN(C)CC1)c1ccccc1NC2=O
1

Request: O=C1CCc2cc(OCCCCc3nnnn3C3CCCCC3)ccc2N1
1.1

Request: CC(=O)O[C@H]1C[C@@H]2CC[C@@H]3[C@H](CC[C@@]4(C)[C@H]3C[C@H]([N+]3(C)CCCCC3)[C@@H]4OC(C)=O)[C@@]2(C)C[C@@H]1N1CCCCC1
-1.4

Request: O=C1NCC2(CCN(CCc3ccccc3)CC2)O1
0.4

Request: C[n+]1c2cc(N)ccc2cc2ccc(N)cc21 (tested in a mixture with another compound)
123

Cited source for all entries: PubChem BioAssay
